Assay protocol: Half life in rat at 2 mg/kg
Type: ADME, organism-based
Set-up: dose 2 mg/kg
Condition info: in vivo
Outcome measure: half-life (h)

1. C[C@H](c1cc(F)cc(F)c1)N(C/C=C/c1cnc2c(c1)C[C@@]1(C2)C(=O)Nc2ncccc21)C(=O)C(C)(C)C
2. C[C@H](c1cc(F)cc(F)c1)N(CC(=O)Nc1ccc2c(c1)C[C@@]1(C2)C(=O)Nc2ncccc21)C(=O)C(C)(C)C
Data request: Between the entries labeled 1 and 2 , whose measured half-life is lower? Bench note: the answer is the label of the chosen record.
Data returned: 2
(2: 1 h, 1: 11 h)

====

Measurement target: Calcitonin-gene-related peptide receptor, CALCRL/RAMP1 (Homo sapiens, UniProt O60894+Q16602)
Sequence (O60894 whole entry): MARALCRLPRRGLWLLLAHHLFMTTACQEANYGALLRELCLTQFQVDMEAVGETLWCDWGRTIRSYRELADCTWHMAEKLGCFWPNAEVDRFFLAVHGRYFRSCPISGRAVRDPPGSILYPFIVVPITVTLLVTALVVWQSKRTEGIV
Sequence (Q16602 whole entry): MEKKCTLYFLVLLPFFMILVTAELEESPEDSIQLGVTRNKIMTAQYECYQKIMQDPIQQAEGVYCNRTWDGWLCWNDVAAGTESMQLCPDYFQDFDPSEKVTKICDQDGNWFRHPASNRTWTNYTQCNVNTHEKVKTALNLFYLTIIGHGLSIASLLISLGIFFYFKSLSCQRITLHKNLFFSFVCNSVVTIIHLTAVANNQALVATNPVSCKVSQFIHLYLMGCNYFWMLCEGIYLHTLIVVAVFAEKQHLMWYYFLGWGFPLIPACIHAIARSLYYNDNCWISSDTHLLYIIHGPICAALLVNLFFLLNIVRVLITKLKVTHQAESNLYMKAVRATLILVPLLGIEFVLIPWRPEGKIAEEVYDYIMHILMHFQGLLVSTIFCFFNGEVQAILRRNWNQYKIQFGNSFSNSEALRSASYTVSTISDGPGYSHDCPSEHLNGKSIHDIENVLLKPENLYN
Assay protocol: Displacement of [125I]-hCGRP from human CALCRL/RAMP1 expressed in HEK293 cell membranes
pKi: −log10 of the molar value.
Outcome measure: pKi

# annotated cases, reported pKi shown
C[C@H](c1cc(F)cc(F)c1)N(C/C=C/c1cnc2c(c1)C[C@@]1(C2)C(=O)Nc2ncccc21)C(=O)C(C)(C)C ... 10.40
C[C@H](c1cc(F)cc(F)c1)N(CCCc1cnc2c(c1)C[C@@]1(C2)C(=O)Nc2ncccc21)C(=O)C(C)(C)C ... 9.66

I. Cc1ccsc1C(=O)N(C/C=C/c1cnc2c(c1)C[C@@]1(C2)C(=O)Nc2ncccc21)[C@H](C)c1cc(F)cc(F)c1
II. CC(C)(C)C(=O)N(C/C=C/c1cnc2c(c1)C[C@@]1(C2)C(=O)Nc2ncccc21)[C@@H]1CCc2ccccc21
Data request: Between the entries labeled I and II , whose measured pKi is lower? Bench note: the answer is the label of the chosen record.
Data returned: I
(I: 9.89, II: 10.10)

====

Assay protocol: Oral bioavailability in rat at 10 mg/kg
Assay type: ADME, organism-based
Condition info: in vivo
Outcome measure: bioavailability (%)
Reply numerically in %, unit not repeated.

Data request: Find the recorded bioavailability belonging to C[C@H](c1cc(F)cc(F)c1)N(C/C=C/c1cnc2c(c1)C[C@@]1(C2)C(=O)Nc2ncccc21)C(=O)C(C)(C)C and report it.
Data returned: 51

====

Assay protocol: Apparent passive permeability of the compound in presence of […]
Type: physicochemical
Condition info: not told
Outcome measure: Papp (×10⁻⁶ cm/s)

Cc1ccc([C@@H](C)N(C/C=C/c2cnc3c(c2)C[C@@]2(C3)C(=O)Nc3ncccc32)C(=O)C(C)(C)C)cc1F ... 18
CC(C)(C)C(=O)N(C/C=C/c1cnc2c(c1)C[C@@]1(C2)C(=O)Nc2ncccc21)[C@@H]1CCc2ccccc21 ... 24
CC(C)(C)C(=O)N(C/C=C/c1cnc2c(c1)C[C@@]1(C2)C(=O)Nc2ncccc21)C1CCCCCC1 ... 20
C[C@H](c1cc(F)cc(F)c1)N(CC(=O)Nc1ccc2c(c1)C[C@@]1(C2)C(=O)NC(=O)N1C)C(=O)C(C)(C)C ... 25

====

Measurement target: Calcitonin-gene-related peptide receptor, CALCRL/RAMP1 (Homo sapiens, UniProt O60894+Q16602)
Assay protocol: Displacement of [125I]-hCGRP from human CALCRL/RAMP1 expressed in HEK293 cell membranes
Outcome measure: Ki (pM)

C[C@H](c1cc(F)cc(F)c1)N(C/C=C/c1cnc2c(c1)C[C@@]1(C2)C(=O)Nc2ncccc21)C(=O)c1nccn1C ... 160

P. CC(C)(C)C(=O)N(CC#Cc1ccc2c(c1)C[C@@]1(C2)C(=O)Nc2ncccc21)[C@@H]1CCc2ccccc21
Q. C[C@H](c1ccccc1)N(CCCc1ccc2c(c1)C[C@@]1(C2)C(=O)Nc2ncccc21)C(=O)C(C)(C)C
Data request: Compare P and Q by numeric Ki and name the larger one. Bench note: the answer is the label of the chosen record.
Data returned: Q
(Q: 7600 pM, P: 200 pM)
